- experiment: AUC(0 to t) in Beagle dog at 1 mg/kg, iv measured upto 24 hrs by LC-MS/MS analysis
- Assay type: ADME, organism-based, Canis lupus familiaris
- Design: time < 24 hrs, dose 1 mg/kg, route iv
- experimental-context: in vivo
property: AUCt (ng·h/mL)

{"columns": ["compound", "unit-descriptor", "test-value"],
 "data": [
  ["C[C@H]1CC2(CCN(c3ccc(C(=O)N4CCN(C5CN(c6ccc7c(c6)C(=O)N(C6CCC(=O)NC6=O)C7=O)C5)CC4)cc3)CC2)CN1c1ccc(C#N)c(Cl)c1 (stereo partly specified)", "ng·h/mL", 3240]
]}

These entries and their values trace back to ChEMBL document CHEMBL5331127.
